method-summary: APR_HepG2_P-H2AX_24hr: Apredica 24-hour HepG2 Assay for H2AX Phosphorylation (AID 2282920)
measurement-setup: high-content imaging, actives raise or lower the signal
Active and inactive are the calls of the source. How the source made its calls: active means hit-call score of the fitted dose curve at least 0.9, where 1 is the maximum; inactive means score below 0.9.
// one of true = active, false = inactive, no free text

Exercise: Each compound tested received a call. Report the one for COC(=O)Nc1nc2ccccc2[nH]1 .
Key: true

Exercise: Each compound tested received a call. Report the one for O=C(Nc1ccccc1)c1ccccc1I .
Key: false

Exercise: Each compound tested received a call. Report the one for OCCCl .
Key: false

Exercise: Each compound tested received a call. Report the one for O=C(Oc1ccc(Br)cc1)N1CCN2CCC1CC2 .
Key: false

Exercise: Each compound tested received a call. Report the one for N#CC(Br)(Br)C(N)=O .
Key: false

Exercise: Each compound tested received a call. Report the one for CC(C)(C)OOC(C)(C)CCC(C)(C)OOC(C)(C)C .
Key: false

Exercise: Each compound tested received a call. Report the one for Cc1cccc(N)c1N .
Key: true

Exercise: Each compound tested received a call. Report the one for O=Cc1ccco1 .
Key: false

Exercise: Each compound tested received a call. Report the one for CS(=O)(=O)NC(=O)c1cc(Oc2ccc(C(F)(F)F)cc2Cl)ccc1[N+](=O)[O-] .
Key: false

Where do these numbers come from? They come from PubChem BioAssay (EPA / NIEHS).
